Assay: qHTS assay to identify small molecule agonists of the endoplasmic reticulum stress response signaling pathway (AID 1159516)
Details: ESRE-bla HeLa, ER stress beta-lactamase reporter, 5 h; series mostly up to 61 µM
Records with an inconclusive call do not appear. Activity calls are given as the source filed them. Calls follow the shape of the dose curve; as a rule, active = well fitted activation curve with a large enough effect in the signal ratio in the repeat runs (not every such curve was filed as active); inconclusive = weak or mixed curves, or effect the other way; inactive = flat fitted curve, though single readings scatter; the % refers to the signal ratio.

{"ITEM_SMILES": "c1cc(-c2ccncc2)ccn1", "outcome": "inactive"}
{"ITEM_SMILES": "Nc1ccc(Cl)cc1Cl", "outcome": "inactive"}
{"ITEM_SMILES": "Cn1cnc([N+](=O)[O-])c1Sc1ncnc2nc[nH]c12", "outcome": "inactive"}

---

Target: Nuclear receptor subfamily 1 group I member 2 (Homo sapiens) (UniProt O75469)
Experiment: Human pregnane X receptor (PXR) activation by small molecules, qHTS assay (AID 1346985); also: nearly all actives have a fitted effect of over 40% in size
Details: DPX-2 HepG2 CYP3A4-luciferase, 24 h; series mostly up to 38.3 µM
Records with an inconclusive call do not appear. The source made the active and inactive calls. Calls follow the shape of the dose curve; as a rule, active = well fitted activation curve with a large enough effect in the repeat runs; inconclusive = weak or mixed curves; inactive = flat fitted curve, though single readings scatter.
Classes used: true (active), false (inactive)

{"COMPOUND": "OC[C@H]1O[C@@H]2O[C@H]3[C@H](O)[C@@H](O)[C@@H](O[C@H]4[C@H](O)[C@@H](O)[C@@H](O[C@H]5[C@H](O)[C@@H](O)[C@@H](O[C@H]6[C@H](O)[C@@H](O)[C@@H](O[C@H]7[C@H](O)[C@@H](O)[C@@H](O[C@H]8[C@H](O)[C@@H](O)[C@@H](O[C@H]1[C@H](O)[C@H]2O)O[C@@H]8CO)O[C@@H]7CO)O[C@@H]6CO)O[C@@H]5CO)O[C@@H]4CO)O[C@@H]3CO", "GROUP": "false"}
{"COMPOUND": "O=C(Nc1ccc(Cl)cc1)Nc1ccc(Cl)c(Cl)c1", "GROUP": "false"}
{"COMPOUND": "CC(=O)O[C@]1(C(C)=O)CC[C@H]2[C@@H]3C=C(Cl)C4=CC(=O)[C@@H]5C[C@@H]5[C@]4(C)[C@H]3CC[C@@]21C", "GROUP": "false"}
{"COMPOUND": "Nc1ccc(S(=O)(=O)Nc2cnc3ccccc3n2)cc1", "GROUP": "false"}
{"COMPOUND": "CCOC(=O)C(C#N)=C(c1ccccc1)c1ccccc1", "GROUP": "true"}
{"COMPOUND": "C=C(C)C1CC=C(C)CC1 (centres undefined)", "GROUP": "false"}
{"COMPOUND": "Cc1c(C(N)=O)cc([N+](=O)[O-])cc1[N+](=O)[O-]", "GROUP": "false"}
{"COMPOUND": "C#C[C@]1(O)CC[C@H]2[C@@H]3CCC4=Cc5oncc5C[C@]4(C)[C@H]3CC[C@@]21C", "GROUP": "false"}
{"COMPOUND": "Nc1ncnc2nc[nH]c12", "GROUP": "false"}

---

Experiment: Human pregnane X receptor (PXR) small molecule agonists, qHTS cell viability counter screen (AID 1346977); also: nearly all actives have a fitted effect of over 50% in size
Conditions: PXR-Luc HepG2 viability, CellTiter-Fluor, 24 h; series mostly up to 92.4 µM
Inconclusive results are not listed. The source made the active and inactive calls. Calls follow the shape of the dose curve; as a rule, active = well fitted cell-killing curve with a large enough effect in the repeat runs; inconclusive = weak or mixed curves, or effect the other way; inactive = flat fitted curve, though single readings scatter.
METRIC_NAME: outcome

{"COMPOUND": "CN(C)CCN(Cc1cccs1)c1ccccn1", "METRIC_NAME": "outcome", "RESULT": "inactive"}
{"COMPOUND": "CC(=O)c1ccccn1", "METRIC_NAME": "outcome", "RESULT": "inactive"}
{"COMPOUND": "CCC(C)(O)CCCC(C)C (stereo not drawn)", "METRIC_NAME": "outcome", "RESULT": "inactive"}
{"COMPOUND": "OC(CCl)CCl", "METRIC_NAME": "outcome", "RESULT": "inactive"}
{"COMPOUND": "C=C(C)C1CC=C(C)CC1 (stereo not drawn)", "METRIC_NAME": "outcome", "RESULT": "inactive"}
{"COMPOUND": "CN(C)C(=N)N=C(N)N", "METRIC_NAME": "outcome", "RESULT": "inactive"}
{"COMPOUND": "CC(C)OC(=O)C(C)(C)Oc1ccc(C(=O)c2ccc(Cl)cc2)cc1", "METRIC_NAME": "outcome", "RESULT": "inactive"}
{"COMPOUND": "OC1CCCCCCCCCCC1", "METRIC_NAME": "outcome", "RESULT": "inactive"}

---

Target: Estrogen receptor (Homo sapiens)
Experiment: qHTS assay to identify small molecule agonists of the estrogen receptor alpha (ER-alpha) signaling pathway using the BG1 cell line (AID 743079); also: nearly all actives have a fitted effect of over 20% in size
Conditions: BG1Luc4E2 cells, ERE-luciferase agonist, 22 h; series mostly up to 70.3 µM
Results filed as inconclusive are left out. Activity calls are given as the source filed them. The call rests on the fitted dose curve; in most records, active means well fitted activation curve with a large enough effect in the repeat runs; inconclusive means weak or mixed curves, or effect the other way; inactive means no such curve, though single readings can be large or run the other way.
Possible outcomes: Yes (active), No (inactive)

{"COMPOUND": "CCC(C)(O)CCCC(C)C (stereo not given)", "GROUP": "No"}
{"COMPOUND": "C[C@]12CC[C@H]3[C@@H](CCC4=CC(=O)CC[C@@]43C)[C@@H]1CC[C@@H]2C(=O)CO", "GROUP": "Yes"}
{"COMPOUND": "Nc1ccccc1N", "GROUP": "No"}
{"COMPOUND": "CC(C)(C)NC(=O)[C@H]1CC[C@H]2[C@@H]3CC[C@H]4NC(=O)C=C[C@]4(C)[C@H]3CC[C@]12C", "GROUP": "No"}
{"COMPOUND": "CCC(C)CO (stereo not given)", "GROUP": "No"}
{"COMPOUND": "O=S(=O)(O)c1ccc(O)cc1", "GROUP": "No"}
{"COMPOUND": "CC(=O)CC/C=C(\\C)CCC=C(C)C", "GROUP": "No"}
{"COMPOUND": "COc1cccc2c1C(=O)c1c(O)c3c(c(O)c1C2=O)C[C@@](O)(C(=O)CO)C[C@@H]3O[C@H]1C[C@H](N)[C@H](O)[C@H](C)O1", "GROUP": "No"}
{"COMPOUND": "C[C@]12CCC(=O)C=C1CC[C@@H]1[C@@H]2C(=O)C[C@@]2(C)[C@H]1CC[C@]2(O)C(=O)CO", "GROUP": "No"}
{"COMPOUND": "O=CCCCC=O", "GROUP": "No"}
{"COMPOUND": "Nc1ccc(Cl)cc1Cl", "GROUP": "No"}
{"COMPOUND": "CCCCNS(=O)(=O)c1ccccc1", "GROUP": "No"}
{"COMPOUND": "CCCCCCCCCCCO", "GROUP": "No"}
{"COMPOUND": "CC(C(=O)O)c1cccc(C(=O)c2ccccc2)c1 (stereo not given)", "GROUP": "No"}
{"COMPOUND": "c1cc(-c2ccncc2)ccn1", "GROUP": "No"}
{"COMPOUND": "COC(C)COC(C)COC(C)CO (stereo not given)", "GROUP": "No"}
{"COMPOUND": "CC1=CC2C3CC(C=C3C)C2C1 (stereo not given)", "GROUP": "No"}
{"COMPOUND": "O=C1OC2(c3cc(Br)c(O)c(Br)c3Oc3c2cc(Br)c(O)c3Br)c2c(Cl)c(Cl)c(Cl)c(Cl)c21", "GROUP": "No"}
{"COMPOUND": "CCCCc1oc2ccccc2c1C(=O)c1cc(I)c(OCCN(CC)CC)c(I)c1", "GROUP": "No"}
{"COMPOUND": "COC(=O)CCC(=O)OC", "GROUP": "No"}
{"COMPOUND": "c1ccncc1", "GROUP": "No"}
{"COMPOUND": "Cn1cnc([N+](=O)[O-])c1Sc1ncnc2nc[nH]c12", "GROUP": "No"}
{"COMPOUND": "CC1=CCC(C(C)(C)O)CC1 (stereo not given)", "GROUP": "No"}
{"COMPOUND": "CC(C)=CCCC(C)CCO (stereo not given)", "GROUP": "No"}
{"COMPOUND": "Cc1[nH]c(=O)c(C#N)cc1-c1ccncc1", "GROUP": "No"}
{"COMPOUND": "O=C(O)c1ccccc1Nc1cccc(C(F)(F)F)c1", "GROUP": "No"}
{"COMPOUND": "CCCc1c(OCCCCc2nn[nH]n2)ccc(C(C)=O)c1O", "GROUP": "No"}
{"COMPOUND": "COc1ccccc1/C=C/C=O", "GROUP": "No"}
{"COMPOUND": "CCCCC(CC)COCC1CO1 (stereo not given)", "GROUP": "No"}
{"COMPOUND": "CC(C)OC=O", "GROUP": "No"}
{"COMPOUND": "CNCCCC12CCC(c3ccccc31)c1ccccc12", "GROUP": "No"}
{"COMPOUND": "O=C(OCc1ccccc1)c1ccccc1O", "GROUP": "Yes"}
{"COMPOUND": "CC(C)OB(OC(C)C)OC(C)C", "GROUP": "No"}
{"COMPOUND": "Cc1ccc(C)c(O)c1C", "GROUP": "No"}
{"COMPOUND": "c1ccc2sc(SSN3CCOCC3)nc2c1", "GROUP": "No"}
{"COMPOUND": "OC1CCCCCCCCCCC1", "GROUP": "No"}
{"COMPOUND": "Nc1ccc(Nc2ccccc2)cc1", "GROUP": "No"}
{"COMPOUND": "CCCCOCCOCCO", "GROUP": "No"}
{"COMPOUND": "COc1ccc(OC)c(C(O)CNC(=O)CN)c1 (stereo not given)", "GROUP": "No"}
{"COMPOUND": "CN1C(C(=O)Nc2ccccn2)=C(O)c2ccccc2S1(=O)=O", "GROUP": "No"}
